Entries and their measured Kd follow.
molecular target: Human FIXa (Homo sapiens, UniProt P00740); construct: gene F9; purchased from Haematologic Technologies, no tag stated; assay: intrinsic fluorescence titration, single-site hyperbolic fit; assay type: binding; conditions: read-out: Kd, μM (determined by monitoring change in intrinsic fluorescence)
Sequence (P00740 47-191): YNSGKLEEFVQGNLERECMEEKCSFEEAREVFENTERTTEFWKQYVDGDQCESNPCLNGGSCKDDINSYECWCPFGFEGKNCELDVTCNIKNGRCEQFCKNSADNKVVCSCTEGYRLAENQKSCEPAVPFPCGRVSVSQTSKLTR
Sequence (P00740 227-461): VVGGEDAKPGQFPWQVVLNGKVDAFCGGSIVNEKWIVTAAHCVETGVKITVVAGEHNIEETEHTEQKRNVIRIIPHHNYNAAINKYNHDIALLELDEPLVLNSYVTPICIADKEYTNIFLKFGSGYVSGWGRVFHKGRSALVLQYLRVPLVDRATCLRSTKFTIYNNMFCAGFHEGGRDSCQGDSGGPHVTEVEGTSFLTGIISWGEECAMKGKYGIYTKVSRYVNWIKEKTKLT
The reply should be a number in µM, with the unit left off.

Example entries begin here.
CCCCCC(=O)OC[C@H](COP(=O)(O)OC[C@H](N)C(=O)O)OC(=O)CCCCC    1.3
CCCCCC(=O)OC[C@H](COP(=O)(O)OCC(O)CO)OC(=O)CCCCC (some centres unmarked)    307
CCCCCC(=O)OC[C@H](COP(=O)(O)OC[C@@H](N)C(=O)O)OC(=O)CCCCC    208
CCCCCC(=O)OC[C@H](COP(=O)(O)O)OC(=O)CCCCC    238

Next compound, Kd to be filled in.
-- ask Please give the measured Kd for this compound: `CCCCCC(=O)OC[C@H](COP(=O)(O)OCCN)OC(=O)CCCCC`
-- reply 66
